- Tested on: P. falciparum Sierra Leone (D-6) clone
- test-details: In vitro antimalarial pLDH assay, D-6 clone
- Assay type: cell-based
- measurement-setup: as quoted in the Discussion; relative to artemisinin
Catalogue of Relative Activity D-6 values
quantity-measured: Relative Activity D-6

CC12CC(=O)C3CCCCC3(CO1)OO2 (centres unmarked)	33.30%
CC12CC(OC(=O)c3ccc(F)cc3)C3CCCCC3(CO1)OO2 (centres unmarked)	20.81%
C[C@@]12C[C@@H](O)[C@H]3CCCC[C@]3(CO1)OO2	0.43%
COC(C(=O)OC1CC2(C)OCC3(CCCCC13)OO2)(c1ccccc1)C(F)(F)F (centres unmarked) [Compound 19b]	0.50%
CC12CC(O)C3CCCCC3(CO1)OO2 (racemic)	0.62%

====

- System: P. falciparum Indochina (W-2) clone
- test-details: In vitro antimalarial pLDH assay, W-2 clone
- Type: cell-based
- measurement-setup: Plasmodium falciparum, Erythrocyte, 72 h, parasitized red blood cells, 72 h, pLDH readout; NA = Not active; read-out: IC50 (ng/mL) W-2
Decision: IC50 beneath 100 ng/mL gives TRUE; IC50 meeting or exceeding 100 ng/mL gives FALSE.

CC12CC(OC(=O)C=Cc3ccccc3)C3CCCCC3(CO1)OO2 (centres unmarked)	FALSE
CCCCC(=O)OC1CC2(C)OCC3(CCCCC13)OO2 (centres unmarked)	FALSE
C=C1CC2(C)OCC3(CCCCC13)OO2 (centres unmarked)	FALSE
CC12CC(O)C3CCCCC3(CO1)OO2 (racemic)	FALSE
CC12CC(=O)C3CCCCC3(CO1)OO2 (centres unmarked)	TRUE
C[C@@]12C[C@@H](O)[C@H]3CCCC[C@]3(CO1)OO2	FALSE
COc1ccc(C(=O)OC2CC3(C)OCC4(CCCCC24)OO3)cc1 (centres unmarked)	FALSE
CC12CC(OC(=O)c3ccc(Cl)cc3)C3CCCCC3(CO1)OO2 (centres unmarked)	FALSE
CC12CC(OC(=O)c3ccccc3)C3CCCCC3(CO1)OO2 (centres unmarked)	FALSE
C[C@@H]1CC[C@H]2[C@@H](C)C(=O)O[C@@H]3O[C@@]4(C)CC[C@@H]1[C@]32OO4	TRUE

====

- Tested on: P. falciparum Indochina (W-2) clone
- test-details: In vitro antimalarial pLDH assay, W-2 clone
- Format: cell-based
- measurement-setup: as quoted in the Discussion; relative to artemisinin
quantity-measured: Relative Activity W-2 (%)

CC12CC(O)C3CCCCC3(CO1)OO2 (racemic)	0.43
C[C@@]12C[C@@H](O)[C@H]3CCCC[C@]3(CO1)OO2	0.44
CC12CC(OC(=O)c3ccc(F)cc3)C3CCCCC3(CO1)OO2 (centres unmarked)	12.41
COC(C(=O)OC1CC2(C)OCC3(CCCCC13)OO2)(c1ccccc1)C(F)(F)F (centres unmarked) [Compound 19b]	0.34
CC12CC(=O)C3CCCCC3(CO1)OO2 (centres unmarked)	32.72
